Reference source: ChEMBL document CHEMBL1137218

test system: Rattus norvegicus; assay: Percent change from pre-treatment triglycerides level at 100 mg/Kg after 2 weeks; assay type: functional
Listed compounds paired with reported Change
readout: Change (%)

> print(dat)
                                   compound      system.tested  readout  numeric.readout
1  CC(CO)(CCCOCCCC(C)(CO)c1ccccc1)c1ccccc1 (centres undefined)  Rattus norvegicus   Change              -18
2               CC(C)(CO)CCCCOCCCCC(C)(C)CO  Rattus norvegicus   Change              -71
3     CC(C)(CCCCCCCCCCCC(C)(C)C(=O)O)C(=O)O  Rattus norvegicus   Change              -87
4   CC(C)(CCCCOCCCCC(C)(C)CCC(=O)O)CCC(=O)O  Rattus norvegicus   Change              -73
